Source of measurements: patent US6652890B2

Entries and their EC50 values follow.
Target: tNOX activity of intact 4T1 mouse mammary cells (Mus musculus)
Construct: endogenous in cells; host or cells: 4T1 mouse mammary carcinoma cells (intact)
Assay: Inhibition of tNOX (NADH oxidase) activity of intact 4T1 cells
Format: cell-based
Conditions: Inhibition of residual tNOX remaining in the presence of EGCg, EC50, estimated; EGCg given as 0.1 mM (title), 10^−6 M (head), 10^−7 M
Protocol: A mouse mammary tumor subpopulation line 4T1 arising from a BALB/cf C3H mouse was grown in DME-10, Dulbecco's modified Eagle's medium supplemented with 5% fetal calf serum, 5% newborn calf serum, 1 mM mixed non-essential amino acids, 2 mM L-glutamine, penicillin (100 units/ml), and streptomycin (100 μg/ml) (Miller et al., 1987, Brit. J. Can. 56:561-569 and Miller et al., 1990, Invasion Metastasis 10:101-112). […]
Parameter Measured: EC50 (nM)

Compound: O=C(O[C@@H]1Cc2c(O)cc(O)cc2O[C@@H]1c1ccc(O)c(O)c1)c1cc(O)c(O)c(O)c1 [ECG, (−) - epicatechin gallate]
Parameter Measured: EC50
Result Value: 500
//
Compound: Oc1cc(O)c2c(c1)O[C@H](c1cc(O)c(O)c(O)c1)[C@H](O)C2 [EGC, (−) - epigallocatechin]
Parameter Measured: EC50
Result Value: 1000

====

Molecular target: tNOX activity of intact 4T1 mouse mammary cells (Mus musculus)
Construct: endogenous in cells; host or cells: 4T1 mouse mammary carcinoma cells (intact)
Sequence (Q8R0Z2 1-598): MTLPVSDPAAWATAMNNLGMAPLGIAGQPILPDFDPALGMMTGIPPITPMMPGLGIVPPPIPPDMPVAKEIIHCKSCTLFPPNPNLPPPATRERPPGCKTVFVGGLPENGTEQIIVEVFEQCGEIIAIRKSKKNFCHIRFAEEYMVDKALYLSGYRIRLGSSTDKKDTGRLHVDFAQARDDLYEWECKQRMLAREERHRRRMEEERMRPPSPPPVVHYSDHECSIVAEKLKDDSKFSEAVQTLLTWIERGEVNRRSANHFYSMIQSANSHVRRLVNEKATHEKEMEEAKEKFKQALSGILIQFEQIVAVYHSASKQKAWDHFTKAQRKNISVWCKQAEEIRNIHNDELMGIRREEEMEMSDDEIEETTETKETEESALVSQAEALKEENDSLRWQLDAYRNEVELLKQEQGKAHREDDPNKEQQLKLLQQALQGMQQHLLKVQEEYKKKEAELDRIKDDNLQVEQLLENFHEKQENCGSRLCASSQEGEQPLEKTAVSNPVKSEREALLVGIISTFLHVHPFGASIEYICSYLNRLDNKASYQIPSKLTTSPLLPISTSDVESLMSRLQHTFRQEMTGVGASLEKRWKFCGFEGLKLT
Test: Inhibition of tNOX (NADH oxidase) activity of intact 4T1 cells
Assay type: cell-based
Details: EGCg concentration 10^−4 M, EGCg alone; read-out: EC50 for tNOX inhibition by (−)-epicatechin
pEC50: −log10 of the molar value.
Parameter Measured: pEC50

Molecule: Oc1cc(O)c2c(c1)O[C@H](c1ccc(O)c(O)c1)[C@H](O)C2 [EC, (−) - epicatechin]
Result Value: 6.30

====

molecular target: tNOX activity of intact 4T1 mouse mammary cells (Mus musculus); construct: endogenous in cells; host or cells: 4T1 mouse mammary carcinoma cells (intact); experiment: Inhibition of tNOX (NADH oxidase) activity of intact 4T1 cells; format: cell-based; details: EGCg concentration 10^−6 M, EGCg alone; read-out: EC50 for tNOX inhibition by (−)-epicatechin

Molecule: Oc1cc(O)c2c(c1)O[C@H](c1ccc(O)c(O)c1)[C@H](O)C2 [EC, (−) - epicatechin]
Target: tNOX activity of intact 4T1 mouse mammary cells (Mus musculus)
EC50: 150 nM

====

Target: tNOX activity of intact 4T1 mouse mammary cells (Mus musculus, UniProt Q8R0Z2)
Construct: endogenous in cells; host or cells: 4T1 mouse mammary carcinoma cells (intact)
Assay: Inhibition of tNOX (NADH oxidase) activity of intact 4T1 cells
Format: cell-based
Conditions: EGCg concentration 10^−5 M, EGCg alone; read-out: EC50 for tNOX inhibition by (−)-epicatechin
Method: A mouse mammary tumor subpopulation line 4T1 arising from a BALB/cf C3H mouse was grown in DME-10, Dulbecco's modified Eagle's medium supplemented with 5% fetal calf serum, 5% newborn calf serum, 1 mM mixed non-essential amino acids, 2 mM L-glutamine, penicillin (100 units/ml), and streptomycin (100 μg/ml) (Miller et al., 1987, Brit. J. Can. 56:561-569 and Miller et al., 1990, Invasion Metastasis 10:101-112). […]

Molecule: Oc1cc(O)c2c(c1)O[C@H](c1ccc(O)c(O)c1)[C@H](O)C2 [EC, (−) - epicatechin]
EC50 / nM: 700

====

molecular target: tNOX activity of intact 4T1 mouse mammary cells (Mus musculus); construct: endogenous in cells; host or cells: 4T1 mouse mammary carcinoma cells (intact); assay: Inhibition of tNOX (NADH oxidase) activity of intact 4T1 cells; assay type: cell-based; details: EGCg concentration 10^−7 M, EGCg alone; read-out: EC50 for tNOX inhibition by (−)-epicatechin
pEC50: −log10 of the molar value.

Molecule: Oc1cc(O)c2c(c1)O[C@H](c1ccc(O)c(O)c1)[C@H](O)C2 [EC, (−) - epicatechin]
pEC50: 6.70
